Target: SARS-CoV-2 Spike protein receptor-binding domain (RBD) (SARS-CoV-2, UniProt P0DTC2 319-527)
Reported values of log10 of Kd for individual entries
In plain terms, each number is the log10 of measured Kd in nM.

// worked examples, log10 of Kd included
AB-5 full-length IgG1 (antibody, V domains shown) VH: EVQLEESGTVLARPGASVKMSCKASGYTFTSYWMHWIKQRPGQGLEWIGAIYPGNGDTNYNQKFKDKAKLTAVKSTSSAYMELSSLTNEDSAVYFCTREGIPQLLNTLDVWGQGTSVTVSS VL: DILMTQSPSSLSASLGERVSLTCRASQEISGYLSWLQEKPDGTIKRLIYAASTLDSGVPKRFSGSRSGSDYSLTISSLESEDFADYYCQQYLSYPWTFGGGTKLEIK	2.17
AB-9 full-length IgG1 (antibody, V domains shown) VH: EVQLEESGTVLARPGASVKMSCKASGYTFTSYWMHWIKQRPGQGLEWIGAIYPGNSDTNYNQKFKDKAKLTAVTSTSSAYMELSSLTNEDSAVYFCTREGIPQLLRTLDYWGQGTSVTVSS VL: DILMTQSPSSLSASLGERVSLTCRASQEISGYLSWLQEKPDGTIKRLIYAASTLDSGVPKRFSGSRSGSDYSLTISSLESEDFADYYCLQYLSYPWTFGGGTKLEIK	1.99
AB-4 full-length IgG1 (antibody, V domains shown) VH: EVQLEESGTVLARPGASVKMSCKASGYTFTTYWMHWIKQRPGQGLEWIGAIYPGNGDTNYNQKFKDKAKLTAVKSTSSAYMELSSLTNEDSAVYFCTREGIPQLLRTFDYWGQGTSVTVSS VL: DILMTQSPSSLSASLGERVSLTCRASQEIGGYLSWLQEKPDGTIKRLIYAASTLDSGVPKRFSGSRSGSDYSLTISSLESEDFADYYCLQYLSYPWTFGGGTKLEIK	2.18
AB-3 full-length IgG1 (antibody, V domains shown) VH: EVQLEESGTVLARPGASVKMSCKASGYTFTTYWMHWIKQRPGQGLEWIGAIYPGNGDTNYNQKFKDKAKLTAVKSTSSAYMELSSLTNEDSAVYFCTREGIPQKLRTLDVWGQGTSVTVSS VL: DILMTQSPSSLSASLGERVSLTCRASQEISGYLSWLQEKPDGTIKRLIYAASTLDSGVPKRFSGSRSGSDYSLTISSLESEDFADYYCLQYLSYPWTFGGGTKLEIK	2.25
AB-7 full-length IgG1 (antibody, V domains shown) VH: EVQLEESGTVLARPGASVKMSCKASGYTFTSYWMHWIKQRPGQGLEWIGAIYPGNSDTNYNQKFKDKAKLTAVKSTSSAYMELSSLTNEDSAVYFCTREGIPQLLRSLDYWGQGTSVTVSS VL: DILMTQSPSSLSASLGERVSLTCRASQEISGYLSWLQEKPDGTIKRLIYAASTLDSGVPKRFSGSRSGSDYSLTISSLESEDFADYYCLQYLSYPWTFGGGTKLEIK	2.59

Exercise: Given the binder AB-6 full-length IgG1 (antibody, V domains shown) VH: EVQLEESGTVLARPGASVKMSCKASGYTFTSYWMHWIKQRPGQGLEWIGAIYPGNSDTNYNQKFKDKAKLTAVKSTSSAYMELSSLTNEDSAVYFCTREGIPQLTRTLDYWGQGTSVTVSS VL: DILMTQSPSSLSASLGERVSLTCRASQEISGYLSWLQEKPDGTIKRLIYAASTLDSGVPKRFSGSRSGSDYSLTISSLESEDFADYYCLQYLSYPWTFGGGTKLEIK , what is its reported log10 of Kd?
Solution: 2.01

Every entry's value here was drawn from patent US12473560.
